- SYSTEM NAME: Pim2 kinase (Homo sapiens, UniProt Q9P1W9)
- Sequence (Q9P1W9 whole entry): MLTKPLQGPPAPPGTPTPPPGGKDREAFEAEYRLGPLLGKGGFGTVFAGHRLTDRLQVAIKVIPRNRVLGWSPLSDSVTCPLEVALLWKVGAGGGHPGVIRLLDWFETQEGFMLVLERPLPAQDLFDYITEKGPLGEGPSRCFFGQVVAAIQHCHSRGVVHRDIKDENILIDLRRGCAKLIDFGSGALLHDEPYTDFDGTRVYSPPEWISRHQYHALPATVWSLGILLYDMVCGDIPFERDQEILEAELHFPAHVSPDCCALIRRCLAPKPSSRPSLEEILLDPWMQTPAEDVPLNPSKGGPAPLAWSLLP
- TEST DESCRIPTION: Pim2 ATP depletion assay;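 further: Luciferase-based luminescent readout of ATP remaining after PIM2 phosphorylates a BAD peptide, final 5 nM enzyme, 4 µM ATP, 10 µM peptide, 2.5% DMSO, run to roughly half ATP consumption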
- Format: biochemical
- CONDITIONS: read-out: IC50 (μM) PIM2
Items are presented alongside their recorded IC50.

Qu. State its IC50: Nc1nccnc1C(=O)Nc1cc(Cl)ccc1N1CCCC(N)C1 (centres unmarked)
Ans. 1 to 10 µM

Qu. Given the compound COc1cc(-c2ccncc2NC(=O)c2nc(-c3cc(C(=O)NC(C)C)ccc3F)ccc2N)nc(N)n1 , write its reported IC50.
Ans. < 1 µM

Qu. For the compound Nc1ncc(-c2ccc(N)c(C(=O)Nc3cnccc3N3CCC[C@H](N)C3)n2)c(C(F)(F)F)n1 , give its measured IC50 value.
Ans. < 1 µM

Qu. Find the measured IC50 of Nc1nccnc1C(=O)Nc1[nH]c(=O)ncc1-c1ccccn1 and report it.
Ans. < 1 µM

Qu. Provide IC50 value for the following compound: Nc1nccnc1C(=O)Nc1cnccc1N1CCNCC1
Ans. > 25 µM

Qu. Provide only the value of recorded IC50 for NC(=O)c1cccc(-c2cnc(N)c(C(=O)Nc3ccccc3N3CCC(N)CC3)n2)c1
Ans. 1 to 10 µM

More entries:
Qu. Note down IC50 recorded for Nc1cnc(-c2ccccc2F)nc1C(=O)Nc1cnccc1N1CCCC(O)(C(F)(F)F)C1 (centres unmarked)
Ans. < 1 µM

Qu. Specify reported IC50 for the compound shown: COc1ccc(-c2cnc(N)c(C(=O)Nc3ccccc3N3CCNCC3)n2)cc1
Ans. 1 to 10 µM
